Test system: OVCAR-5 ovarian
Experiment Description: NCI-60 one-dose screen, 48 h (100 = growth as untreated, 0 = no growth, -100 = all killed)
Experimental Context: 10 µM
The panel holds about 83,000 compounds, 20% with a hit somewhere; the sample as a whole holds those more often.

{"Molecule": "CC1=CC2C(C(O)CC3(C)C2CC(C)C32OCOC23COCO3)C2(C)C/C(=C/O)C(=O)C=C12 (stereo not given)", "growth, %": 63.2}
{"Molecule": "CCOC(=O)c1cc(C(=O)c2ccc(OC)c(OC)c2)n2c1ccc1ccc3cccnc3c12", "growth, %": 79.7}
{"Molecule": "C[C@@H](C[C@H](CCO)c1ccccc1)c1ccc2ccccc2c1", "growth, %": -69}
{"Molecule": "N#CCc1csc(Cc2ccccc2)n1", "growth, %": 110}
{"Molecule": "C[C@]12CC[C@@H]3c4ccc(O)cc4CC[C@H]3[C@@H]1CC[C@@H]2NS(=O)(=O)c1ccc(C(F)(F)F)cc1", "growth, %": 90.5}
{"Molecule": "CCCCc1oc2ccccc2c1C(=O)c1cc(I)c(OCCN(CC)CC)c(I)c1", "growth, %": -36}
{"Molecule": "CCOC(=O)c1cc(C(=O)c2cc(OC)c(OC)c(OC)c2)n2ccc(-c3cc[n+](CC(=O)c4cc(OC)c(OC)c(OC)c4)cc3)cc12", "growth, %": 92.5}
{"Molecule": "CCN(CC)CCCC(C)N=C(C1=C(C(=NC(C)CCCN(CC)CC)c2cccc(OC)c2)C(=O)NC1=O)c1cccc(OC)c1 (stereo not given)", "growth, %": -3.07}
{"Molecule": "Cc1noc(C)c1CSc1ccccc1C(=O)N1CCN(c2cccc(C(F)(F)F)c2)CC1", "growth, %": 88.1}
{"Molecule": "Cc1c2c[n+](C(C)C)ccc2c(C)c2c1[nH]c1ccccc12", "growth, %": 55.7}

* * *

Test system: NCI-H460 lung
Experiment Description: NCI-60 one-dose screen, 48 h (100 = growth as untreated, 0 = no growth, -100 = all killed)
Experimental Context: 10 µM
Compounds without any hit were thinned out: in the full panel of roughly 83,000, 20% have a hit.

{"Compound": "NC(CSC(c1ccccc1)(c1ccccc1)c1cccc2ccccc12)C(=O)O (stereo not given)", "growth, %": 98.8}
{"Compound": "CNC(=O)c1cn2c3c(c(N4CCN(C)CC4)c(F)cc3c1=O)OC[C@@H]2C", "growth, %": 103}
{"Compound": "COc1ccc(/C(C#N)=C/c2ccccc2OC)cc1", "growth, %": 20.9}
{"Compound": "Cc1ccc(N=Nc2ccccc2)cc1", "growth, %": 105}
{"Compound": "CNS(=O)(=O)Oc1ccc(-c2ccc3occc3c2)cc1", "growth, %": 104}

* * *

Test system: ACHN renal
Experiment Description: NCI-60 one-dose screen, 48 h (100 = growth as untreated, 0 = no growth, -100 = all killed)
Experimental Context: 10 µM
About 83,000 compounds went through this panel and 20% of them were active in at least one assay; those are over-represented in the sample as a whole.

{"Smiles Input": "Nc1nc(-c2ccc(Cl)cc2)cc(-c2cc3ccccc3oc2=O)n1", "growth / %": 92.5}
{"Smiles Input": "O=C1c2c(c3c4ccccc4n(CCCCCCN4CCOCC4)c3c3[nH]c4ccccc4c23)C(=O)N1O", "growth / %": 92.6}
{"Smiles Input": "CN1CCN(CCC(=O)Nc2cccc(-n3cc(-c4ccncc4)c(-c4ccc(Cl)c(O)c4)n3)c2)CC1", "growth / %": 45.5}
{"Smiles Input": "COC(=O)CC[C@@H](C)[C@H]1CC[C@H]2[C@@H]3CC[C@@H]4C[C@H](O)CC[C@]4(C)[C@H]3C[C@H](O)[C@]12C", "growth / %": 99.1}
{"Smiles Input": "O=C(CCl)Oc1ccc(OC(=O)CCl)cc1", "growth / %": 75.2}

* * *

Tested on: RXF 393 renal
Experiment Description: NCI-60 one-dose screen, 48 h (100 = growth as untreated, 0 = no growth, -100 = all killed)
Experimental Context: 10 µM
The panel holds about 83,000 compounds, 20% with a hit somewhere; the sample as a whole holds those more often.
Metric Name: growth (%)

{"Molecule": "COc1cc2c3c(n(C4CCN(C)CC4)c(=O)c2cc1OC)-c1cc2c(cc1C3=O)OCO2", "Subject Of Test": "RXF 393 renal", "Reported Value": 68.2}
{"Molecule": "O=C(Nc1ccc2c(O)cc(S(=O)(=O)O)cc2c1)c1ccc([N+](=O)[O-])cc1", "Subject Of Test": "RXF 393 renal", "Reported Value": 105}
{"Molecule": "N#CCc1csc(Cc2ccccc2)n1", "Subject Of Test": "RXF 393 renal", "Reported Value": 119}
{"Molecule": "O=C(CSc1nnc(-c2cccnc2SCc2ccccc2)o1)Nc1nc(Cl)cc(Cl)n1", "Subject Of Test": "RXF 393 renal", "Reported Value": 105}
{"Molecule": "COc1ccc2c(c1)OC(N)=C(C#N)C2c1cc(OC)c(OC)c(OC)c1 (configuration not stated)", "Subject Of Test": "RXF 393 renal", "Reported Value": 38.7}
{"Molecule": "C=CCn1c(SCC(=O)Nc2ccc(C(=O)/C=C/c3cc(OC)c(OC)c(OC)c3)cc2)nnc1-c1cc(-c2ccc(Cl)cc2)nc2ccccc12", "Subject Of Test": "RXF 393 renal", "Reported Value": 59.4}
{"Molecule": "O=C1c2c(c3c4ccccc4n(CCCCCCN4CCOCC4)c3c3[nH]c4ccccc4c23)C(=O)N1O", "Subject Of Test": "RXF 393 renal", "Reported Value": 90.3}
{"Molecule": "C=C(NC(=O)C(=C)NC(=O)c1csc(C2=NC3c4csc(n4)C4NC(=O)c5csc(n5)C(C(C)(O)C(C)O)NC(=O)C5CSC(=N5)C(=CC)NC(=O)C(C(C)O)NC(=O)c5csc(n5)C3(CC2)NC(=O)C(C)NC(=O)C(=C)NC(=O)C(C)NC(=O)C(C(C)CC)NC2C=Cc3c(C(C)O)cc(nc3C2O)C(=O)OC4C)n1)C(N)=O (configuration not stated)", "Subject Of Test": "RXF 393 renal", "Reported Value": -41.3}
{"Molecule": "C/C(=N\\O)c1ccc(NC(=O)CSc2nnc(-c3ccccc3)n2-c2ccccc2)cc1", "Subject Of Test": "RXF 393 renal", "Reported Value": 99.9}
{"Molecule": "COc1ccc(-c2nn(-c3cccc(Cl)c3)cc2-c2cc(-c3ccccc3)[nH]c(=O)c2C#N)cc1", "Subject Of Test": "RXF 393 renal", "Reported Value": -25.6}
{"Molecule": "COc1cc(-c2nn(-c3ccc(NC(=O)NCCCNC(=O)c4ccccc4)cc3)cc2-c2ccncc2)ccc1Cl", "Subject Of Test": "RXF 393 renal", "Reported Value": 25.2}
{"Molecule": "C=CCn1c(SCC(=O)Nc2ccc(C(=O)/C=C/c3ccc(Cl)cc3)cc2)nnc1-c1cc(-c2ccccc2)nc2ccccc12", "Subject Of Test": "RXF 393 renal", "Reported Value": 63.9}
{"Molecule": "CN1CCc2c(sc3nc4n(-c5ccc(Cl)cc5)c(=O)[nH]n4c(=O)c23)C1", "Subject Of Test": "RXF 393 renal", "Reported Value": 118}
{"Molecule": "c1ccc2c(c1)Cc1ccccc1N2CCN1CCCCC1", "Subject Of Test": "RXF 393 renal", "Reported Value": 110}
{"Molecule": "S=C(NCc1ccccc1)NCc1ccccc1", "Subject Of Test": "RXF 393 renal", "Reported Value": 101}
{"Molecule": "Cc1nn(-c2ccccc2)c2nc(Cl)c(C=O)c(-c3ccccc3)c12", "Subject Of Test": "RXF 393 renal", "Reported Value": 105}
{"Molecule": "Cc1ccc(S(=O)(=O)N/N=C2\\CCCc3ccccc32)cc1", "Subject Of Test": "RXF 393 renal", "Reported Value": 103}
{"Molecule": "CN(C)CCOc1cccc(-c2nc3sccn3c2-c2ccnc(S(C)(=O)=O)n2)c1", "Subject Of Test": "RXF 393 renal", "Reported Value": 104}
{"Molecule": "COc1ccc(-c2csc(NC(=O)c3ccc(Cc4n[nH]c(=O)c5cccnc45)cc3)n2)cc1", "Subject Of Test": "RXF 393 renal", "Reported Value": 72.4}
{"Molecule": "C=C1CCC2(C#N)[C@H]3[C@H](CC[C@@H]2C)[C@@H](C)C[C@@H](CC(C)(C)NC(=O)CN2CCC2=O)[C@H]13 (some centres not stated)", "Subject Of Test": "RXF 393 renal", "Reported Value": 55.5}
{"Molecule": "CC(=O)O[C@@]12CO[C@@H]1C[C@H](O)[C@@]1(C)C(=O)[C@H](O)C3=C(C)[C@@H](OC(=O)[C@H](O)[C@@H](NC(=O)OC(C)(C)C)c4ccccc4)C[C@@](O)([C@@H](OC(=O)c4ccccc4)C12)C3(C)C (some centres not stated)", "Subject Of Test": "RXF 393 renal", "Reported Value": 23.7}
{"Molecule": "COc1ccc(/C(=N\\N)C(=O)c2ccccc2)cc1 (tested in a mixture with another compound)", "Subject Of Test": "RXF 393 renal", "Reported Value": 96.9}
{"Molecule": "COc1ccc(-c2nn(-c3cccc(Cl)c3)cc2-c2nc(N)[nH]c(=O)c2C#N)cc1", "Subject Of Test": "RXF 393 renal", "Reported Value": 63.4}
{"Molecule": "O=C1NC(=O)c2c(CCCSc3nc4ccccc4c(=O)n3CCc3ccccc3)cccc21", "Subject Of Test": "RXF 393 renal", "Reported Value": 92.8}
{"Molecule": "S=C1N(c2ccccc2)CN(C2CCCCC2)CN1c1ccccc1", "Subject Of Test": "RXF 393 renal", "Reported Value": 109}
{"Molecule": "CCCCCCCCCCCC[n+]1c(C)cc(N)c2ccccc21", "Subject Of Test": "RXF 393 renal", "Reported Value": -27.7}
{"Molecule": "O=C(Nc1ccc(F)cc1)c1cc2ccccc2cc1O", "Subject Of Test": "RXF 393 renal", "Reported Value": 94.6}
{"Molecule": "COc1cc2cc(Oc3ccc(NC(=O)Nc4cccc(C(F)(F)F)c4)cc3)c(C)nc2cc1OC", "Subject Of Test": "RXF 393 renal", "Reported Value": -13.1}
{"Molecule": "C/C=C/C1=CN2C(=O)c3cc(OC4OC(C)C(NC)C(C)(O)C4O)c(C)c(O)c3N=C[C@@H]2C1 (some centres not stated)", "Subject Of Test": "RXF 393 renal", "Reported Value": -40.5}
{"Molecule": "O=C(CSc1nccc(Nc2cccc3ccccc23)n1)c1ccc(Cl)cc1", "Subject Of Test": "RXF 393 renal", "Reported Value": 106}
{"Molecule": "C=C(C)[C@@H]1CC[C@]2(COCCC#N)CC[C@]3(C)[C@H](CC[C@@H]4[C@@]5(C)Cc6c([nH]c7ccccc67)C(C)(C)[C@@H]5CC[C@]43C)[C@@H]12", "Subject Of Test": "RXF 393 renal", "Reported Value": 112}
{"Molecule": "Cc1ccc(C2=NN(c3ccc(S(C)(=O)=O)cc3)C(=O)CC2)cc1", "Subject Of Test": "RXF 393 renal", "Reported Value": 15.4}

Taken from PubChem BioAssay (NCI).
